Entries and their OD450 nm values follow.
SYSTEM UNDER TEST: T1, human GPC3-His protein (human, UniProt P51654 25-559)
T1 construct: Bought protein; also called human GPC3 protein; not shown: His tag
PROTOCOL DETAILS: ELISA, coated human GPC3, antibody 0.1 nM;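 further: antigen coated on 96-well plates at 1 µg/mL, antibody bound 2 h at 37 °C, detected with HRP-labeled secondary antibody and TMB substrate, acid-stopped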
REPORTED ENDPOINT: OD450 nm (OD450)

# BINDER, REPORTED
data = [
    ("F2.154.1 human-murine chimeric antibody (antibody, human IgG1, kappa, V domains shown) VH: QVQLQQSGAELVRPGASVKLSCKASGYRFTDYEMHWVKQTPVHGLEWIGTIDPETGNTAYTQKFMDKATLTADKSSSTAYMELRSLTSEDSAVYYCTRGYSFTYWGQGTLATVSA VL: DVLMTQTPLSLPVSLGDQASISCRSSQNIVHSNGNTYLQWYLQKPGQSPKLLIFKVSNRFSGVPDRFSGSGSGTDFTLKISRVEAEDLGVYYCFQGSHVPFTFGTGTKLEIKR", 1.57),
    ("F1.41.17 human-murine chimeric antibody (antibody, human IgG1, kappa, V domains shown) VH: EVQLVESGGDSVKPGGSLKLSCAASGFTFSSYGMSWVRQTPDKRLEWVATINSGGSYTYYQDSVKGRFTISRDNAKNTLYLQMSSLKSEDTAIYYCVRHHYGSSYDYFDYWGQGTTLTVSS VL: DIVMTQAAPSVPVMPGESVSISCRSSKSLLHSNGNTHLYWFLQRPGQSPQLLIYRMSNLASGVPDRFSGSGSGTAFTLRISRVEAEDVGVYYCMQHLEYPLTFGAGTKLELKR", 0.97),
    ("F1.136.7 human-murine chimeric antibody (antibody, human IgG1, kappa, V domains shown) VH: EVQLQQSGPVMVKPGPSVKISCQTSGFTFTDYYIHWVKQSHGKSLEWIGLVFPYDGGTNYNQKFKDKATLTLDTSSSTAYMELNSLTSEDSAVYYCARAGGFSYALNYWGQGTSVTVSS VL: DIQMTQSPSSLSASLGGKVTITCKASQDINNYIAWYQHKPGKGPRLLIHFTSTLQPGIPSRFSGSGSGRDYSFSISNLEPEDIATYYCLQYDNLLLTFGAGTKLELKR", 0.43),
]
